- TARGET_DESC: PI3Kδ (Homo sapiens)
- Sequence (O00329 whole entry): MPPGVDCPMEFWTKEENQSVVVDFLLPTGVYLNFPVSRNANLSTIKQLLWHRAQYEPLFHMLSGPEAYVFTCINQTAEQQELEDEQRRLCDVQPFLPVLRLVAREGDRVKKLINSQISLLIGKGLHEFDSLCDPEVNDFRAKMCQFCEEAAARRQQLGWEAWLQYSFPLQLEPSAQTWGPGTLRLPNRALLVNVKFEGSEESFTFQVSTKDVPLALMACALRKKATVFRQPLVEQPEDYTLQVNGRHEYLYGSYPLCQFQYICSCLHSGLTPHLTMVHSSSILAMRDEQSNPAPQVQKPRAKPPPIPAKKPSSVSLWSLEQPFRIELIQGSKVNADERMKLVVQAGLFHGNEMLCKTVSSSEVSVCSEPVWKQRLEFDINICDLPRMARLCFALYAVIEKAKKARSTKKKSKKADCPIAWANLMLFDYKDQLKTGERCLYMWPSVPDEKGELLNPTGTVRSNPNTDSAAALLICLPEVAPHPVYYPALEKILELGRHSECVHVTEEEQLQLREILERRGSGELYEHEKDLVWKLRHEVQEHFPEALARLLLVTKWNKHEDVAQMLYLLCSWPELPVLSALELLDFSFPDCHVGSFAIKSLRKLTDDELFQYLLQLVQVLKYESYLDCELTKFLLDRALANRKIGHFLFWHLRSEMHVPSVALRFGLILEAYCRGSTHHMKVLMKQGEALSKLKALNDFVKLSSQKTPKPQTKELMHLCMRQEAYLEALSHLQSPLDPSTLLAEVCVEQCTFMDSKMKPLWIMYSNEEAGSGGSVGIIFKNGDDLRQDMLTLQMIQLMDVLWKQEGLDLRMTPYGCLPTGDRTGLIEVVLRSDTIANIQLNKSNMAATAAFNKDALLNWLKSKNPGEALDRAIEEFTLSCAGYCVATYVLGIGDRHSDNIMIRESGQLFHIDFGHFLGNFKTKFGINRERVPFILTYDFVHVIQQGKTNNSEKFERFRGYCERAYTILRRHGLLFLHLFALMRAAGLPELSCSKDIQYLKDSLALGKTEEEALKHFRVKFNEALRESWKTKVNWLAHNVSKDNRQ
pKd: −log10 of the molar value.
Response key: yes (1) means pKd >= 5; no (0) means pKd < 5.

CC(Nc1ccc(F)c(F)c1)c1cc(C(=O)NCCN(C)C)cc2ncc(N3CCOCC3)nc12 (single isomer, unassigned) [Compound 281b] | yes (1)
CNCCOCCN(C)C(=O)c1cc(C(C)Nc2cc(F)cc(F)c2)c2nc(N3CCOCC3)cnc2c1 (single isomer, unassigned) [Compound 174] | no (0)
CC(Nc1cc(F)cc(F)c1)c1cc(C(=O)NC(C)(C)CO)cc2ncc(N3CCOCC3)nc12 (stereo not shown) | yes (1)
CN(C)C(=O)c1cc(NCc2cc(F)cc(F)c2)c2nc(N3CCOCC3)cnc2c1 | yes (1)
CC(Oc1cc(F)cc(F)c1)c1cc(C(=O)N2CCOCC2)cc2ncc(N3CCO[C@H](C)C3)nc12 (mixture of isomers) | yes (1)

Query string: # bool: pKd of CC(Nc1cc(F)cc(F)c1)c1cc(C(=O)N(C)C)cc2ncc(C3=CCOCC3)nc12 (single isomer, unassigned) >= 5
Result string: yes (1)

###

The following compounds each carry a recorded Kd for PI3Kδ (Homo sapiens, UniProt O00329).
Your answer should be a plain number; it is taken to be in nM.

C[C@H](CO)NCc1cc(F)cc(N2CCCC2c2cc(C(=O)N(C)C)cc3ncc(N4CCOCC4)nc23)c1 (mixture of isomers) [Compound 48] | 724
CN(C)C(=O)c1cc(C2CCCN2c2ccccc2)c2nc(N3CCOCC3)cnc2c1 (stereo not drawn) [Compound 27] | 58

Next item in the queue.
Query string: Fill in: Kd of CC(Nc1cc(F)cc(F)c1)c1cc(C(=O)N2CCNC(C(F)(F)F)C2)cc2ncc(N3CCOCC3)nc12 (single isomer, unassigned) [Compound 237a] is ___
Result string: 204

###

- TARGET_DESC: kinase enzymes (Homo sapiens)
pKd: −log10 of the molar value.
Response key: T means pKd >= 6; F means pKd < 6.

A selection of reference data follows.
Cc1cccc(N(C)C(C)c2cc(C(=O)N(C)C)cc3ncc(N4CCOCC4)nc23)c1 (single isomer, unassigned) [Compound 128] | F
CC(Nc1cc(F)c(F)c(F)c1)c1cc(C(=O)N(C)C2CCNC2)cc2ncc(N3CCOCC3)nc12 (centres unmarked) [Compound 296] | F

Query string: # bool: pKd of CC(Nc1cc(F)cc(F)c1)c1cc(C(=O)N(C)C)cc2ncc(N3CCOCC3)nc12 (single isomer, unassigned) [Compound 12] >= 6
Result string: T

Query string: Field entry: CN(C)C(=O)c1cc(N2CCCC2c2cc(F)cc(F)c2)c2nc(N3CCOCC3)cnc2c1 (single isomer, unassigned) [Compound 395a]
Result string: F

Query string: Field entry: Fc1cc(F)cc(N2CCCC2c2cncc3ncc(N4CCOCC4)nc23)c1 (single isomer, unassigned) [Compound 25]
Result string: F

###

Listing of entries alongside the reported pKd.
- TARGET_DESC: kinase enzymes (Homo sapiens)
pKd: −log10 of the molar value.

Solved entries (count: 6):
CC(Oc1cccc(F)c1F)c1cc(C(=O)N(C)C)cc2ncc(N3CCOCC3)nc12 (single isomer, unassigned) [Compound 73] | < 4.52
CNCCNC(=O)c1cc([C@@H](C)Oc2cccc(F)c2)c2nc(N3CCOCC3)cnc2c1 [Compound 122a] | 4.85
OC[C@@H]1CCCN1Cc1cc(C2CCCN2c2cc(F)cc(F)c2)c2nc(N3CCOCC3)cnc2c1 (single isomer, unassigned) [Compound 77] | < 4.52
COCCN(C)Cc1cc(C2CCCN2c2cc(F)cc(F)c2)c2nc(N3CCOCC3)cnc2c1 (stereo not shown) [Compound 112] | < 4.52
CC(Nc1cc(F)cc(F)c1)c1cc(CO)cc2ncc(N3CCOCC3)nc12 (single isomer, unassigned) [Compound 154b] | 4.60
CC(Nc1cc(F)cc(F)c1)c1cc(CN2CC3(C2)CS(=O)(=O)C3)cc2ncc(N3CCOCC3)nc12 (single isomer, unassigned) [Compound 160] | 4.71

Query string: Fill in: pKd of CC(Oc1ccc(F)c(F)c1)c1cc(C(=O)NCCN(C)C)cc2ncc(N3CCOCC3)nc12 (single isomer, unassigned) [Compound 299a] is ___
Result string: < 4.52

Query string: Field entry: CNCCNC(=O)c1cc(C(C)Nc2cccc(F)c2)c2nc(N3CCOCC3)cnc2c1 (single isomer, unassigned) [Compound 139]
Result string: 4.73

Query string: Field entry: OCCCNCc1cc(C2CCCN2c2cc(F)cc(F)c2)c2nc(N3CCOCC3)cnc2c1 (single isomer, unassigned) [Compound 102]
Result string: < 4.52

Query string: Field entry: CC(Nc1ccc(F)c(F)c1)c1cc(C(=O)N2CC[C@@H](O)C2)cc2ncc(N3CCOCC3)nc12 (single isomer, unassigned) [Compound 300a]
Result string: < 4.52

Query string: Field entry: CC(Nc1cccc(F)c1)c1cc(C(=O)NCC(=O)O)cc2ncc(N3CCOCC3)nc12 (single isomer, unassigned) [Compound 393b]
Result string: 4.80

Query string: Field entry: CC(Oc1ccc(Cl)c(F)c1)c1cc(C(=O)N(C)CCN(C)C)cc2ncc(N3CCOCC3)nc12 (single isomer, unassigned) [Compound 313b]
Result string: < 4.52

###

The following molecules each carry a recorded log10 of Kd for kinase enzymes (Homo sapiens).
A difference of one corresponds to tenfold Kd; all values are log10 with Kd in µM.

Solved entries (count: 5):
CNCCN(C)C(=O)c1cc(C(C)Nc2cc(F)c(F)c(F)c2)c2nc(N3CCOCC3)cnc2c1 (single isomer, unassigned) [Compound 335a] | -0.33
CC(Nc1ccc(F)c(F)c1)c1cc(C(=O)NCCCO)cc2ncc(N3CCOCC3)nc12 (single isomer, unassigned) [Compound 280b] | 1.35
CNCCNC(=O)c1cc(C(C)Nc2cc(F)cc(F)c2)c2nc(N3CCOCC3)cnc2c1 (single isomer, unassigned) [Compound 406a] | -0.43
CC(Nc1cc(F)cc(F)c1)c1cc(CO)cc2ncc(N3CCOCC3)nc12 (single isomer, unassigned) [Compound 154a] | -0.36
COC(=O)[C@@H]1CCCN1C(=O)c1cc(C(C)Nc2cc(F)cc(F)c2)c2nc(N3CCOCC3)cnc2c1 (stereo partly drawn) | 0.80

Query string: Fill in: log10 of Kd of CNCCNC(=O)c1cc([C@@H](C)Oc2cccc(F)c2)c2nc(N3CCOCC3)cnc2c1 [Compound 122a] is ___
Result string: 0.57

###

- System: Akt phosphorylated at Ser473 in PC-3 cells
- METHOD_DESCRIPTION: Cellular assay: phosphorylation of Akt at Ser473 in PC-3 cells (MSD ELISA)
- Format: cell-based
- EXPERIMENTAL_PARAMETERS: PC-3 cells, 60 min compound incubation, MSD ELISA; read-out: IC50 pAkt_S473
pIC50: −log10 of the molar value.
Response key: 1 means pIC50 >= 7; -1 means pIC50 < 7.

CC(Nc1cc(F)cc(F)c1)c1cc(C(=O)N2CCNC(C(F)(F)F)C2)cc2ncc(N3CCOCC3)nc12 (single isomer, unassigned) [Compound 237a] | 1
CC(Nc1cc(F)cc(F)c1)c1cc(C(=O)N(C)CCN(C)C)cc2ncc(N3CCOCC3)nc12 (single isomer, unassigned) [Compound 182] | 1
O=C(c1cc(C2CCCN2c2cc(F)cc(F)c2)c2nc(N3CCOCC3)cnc2c1)N1CCS(=O)(=O)CC1 (single isomer, unassigned) [Compound 43] | -1
CC(Nc1ccc(F)c(F)c1)c1cc(C(=O)NCC2CCCN2)cc2ncc(N3CCOCC3)nc12 (single isomer, unassigned) [Compound 329a] | 1
CC(Oc1ccc(F)c(F)c1)c1cc(C(=O)N2CC[C@@H](N(C)C)C2)cc2ncc(N3CCOCC3)nc12 (single isomer, unassigned) [Compound 298b] | -1

Query string: # bool: pIC50 of CC(Nc1cc(F)cc(F)c1)c1cc(CN2C[C@@H](C)O[C@@H](C)C2)cc2ncc(N3CCOCC3)nc12 (single isomer, unassigned) [Compound 206] >= 7
Result string: -1

Query string: Field entry: CC(Nc1cc(F)cc(F)c1)c1cc(C(=O)NCCO)cc2ncc(N3CCOCC3)nc12 (single isomer, unassigned) [Compound 189]
Result string: -1

Query string: Field entry: CC(Oc1cccc(F)c1)c1cc(C(=O)N2CCC[C@H]2CO)cc2ncc(N3CCOCC3)nc12 (single isomer, unassigned)
Result string: -1

Query string: Field entry: C[C@@H]1CN(c2cnc3cc(C(=O)N(C)C)cc(C4CCCN4c4cccc(F)c4)c3n2)CCO1 (single isomer, unassigned) [Compound 29]
Result string: -1

Query string: Field entry: CC(Nc1cc(F)cc(F)c1)c1cc(C(=O)NCCO)cc2ncc(N3CCOCC3)nc12 (single isomer, unassigned) [Compound 188]
Result string: 1

Where do the numbers come from? From patent US10526316B2.
